- System: maize
- ASSAY: Crop safety study in greenhouse
- Format: in vivo
- RUN PARAMETERS: 7.5-37.5 g a.i./hm^2; pre-emergence and post-emergence application
READOUT LABEL: Crop safety, maize

Field Crop safety, maize (system: maize) for entry Cn1c(C(F)(F)F)cc(=O)n(-c2cc(C3=NOC(C)(COC(=O)C4CC4)C3)c(Cl)cc2F)c1=O (stereo not shown) = good safety

Field Crop safety, maize (system: maize) for entry CC(C)C(=O)OCC1(C)CC(c2cc(-n3c(=O)cc(C(F)(F)F)n(C)c3=O)c(F)cc2Cl)=NO1 (stereo not shown) = good safety

Field Crop safety, maize (system: maize) for entry CC(=O)OCC1(C)CC(c2cc(-n3c(=O)cc(C(F)(F)F)n(C)c3=O)c(F)cc2Cl)=NO1 (stereo not shown) = good safety

Field Crop safety, maize (system: maize) for entry Cn1c(C(F)(F)F)cc(=O)n(-c2cc(C3=NOC(C)(COC(=O)COc4ccc(Cl)cc4Cl)C3)c(Cl)cc2F)c1=O (stereo not shown) = good safety

###

- Test system: Echinochloa crus-galli (L.) Beauv.
- ASSAY: Bioassay of herbicidal activity in greenhouse (further screening)
- Assay type: in vivo
- RUN PARAMETERS: post-emergence; dose 150 g a.i./hm^2
Label scheme for Growth inhibition rate, Post-emergence treatment, Echinochloa crus-galli (L.) Beauv.: lower than 60% is false (0), 60% and above is true (1).

Sample answers from the record:
Hi team, for CC(C)C(=O)OCC1(C)CC(c2cc(-n3c(=O)cc(C(F)(F)F)n(C)c3=O)c(F)cc2Cl)=NO1 (centres unmarked) [Compound 46] , is the recorded Growth inhibition rate, Post-emergence treatment, Echinochloa crus-galli (L.) Beauv. at or above 60%? true (1)

Hi team, for Cn1c(C(F)(F)F)cc(=O)n(-c2cc(C3=NOC(C)(COC(=O)COc4ccc(Cl)cc4Cl)C3)c(Cl)cc2F)c1=O (centres unmarked) [Compound 83] , is the recorded Growth inhibition rate, Post-emergence treatment, Echinochloa crus-galli (L.) Beauv. at or above 60%? false (0)

Hi team, for Cn1c(C(F)(F)F)cc(=O)n(-c2cc(C3=NOC(C)(C(N)=O)C3)c(Cl)cc2F)c1=O (centres unmarked) [Compound 22] , is the recorded Growth inhibition rate, Post-emergence treatment, Echinochloa crus-galli (L.) Beauv. at or above 60%? false (0)

Hi team, for Cn1c(C(F)(F)F)cc(=O)n(-c2cc(C3=NOC(C)(COC(=O)CCc4ccccc4)C3)c(Cl)cc2F)c1=O (centres unmarked) [Compound 55] , is the recorded Growth inhibition rate, Post-emergence treatment, Echinochloa crus-galli (L.) Beauv. at or above 60%? false (0)

Next:
Hi team, for CCOC(=O)C1(C)CC(c2cc(-n3c(=O)cc(C(F)(F)F)n(C)c3=O)ccc2Cl)=NO1 (centres unmarked) [Compound 284] , is the recorded Growth inhibition rate, Post-emergence treatment, Echinochloa crus-galli (L.) Beauv. at or above 60%? true (1)

Hi team, for Cn1c(C(F)(F)F)cc(=O)n(-c2cc(C3=NOC(C)(COC(=O)C4CC4)C3)c(Cl)cc2F)c1=O (centres unmarked) [Compound 45] , is the recorded Growth inhibition rate, Post-emergence treatment, Echinochloa crus-galli (L.) Beauv. at or above 60%? true (1)

Hi team, for CC(=O)OCC1(C)CC(c2cc(-n3c(=O)cc(C(F)(F)F)n(C)c3=O)c(F)cc2Cl)=NO1 (centres unmarked) [Compound 43] , is the recorded Growth inhibition rate, Post-emergence treatment, Echinochloa crus-galli (L.) Beauv. at or above 60%? true (1)

Hi team, for CSCCC(=O)OCC1(C)CC(c2cc(-n3c(=O)cc(C(F)(F)F)n(C)c3=O)c(F)cc2Cl)=NO1 (centres unmarked) [Compound 54] , is the recorded Growth inhibition rate, Post-emergence treatment, Echinochloa crus-galli (L.) Beauv. at or above 60%? false (0)

Hi team, for C#CCOC(=O)C1(C)CC(c2cc(-n3c(=O)cc(C(F)(F)F)n(C)c3=O)ccc2Cl)=NO1 (centres unmarked) [Compound 290] , is the recorded Growth inhibition rate, Post-emergence treatment, Echinochloa crus-galli (L.) Beauv. at or above 60%? true (1)
